system: Bacillus subtilis; assay: cleaved RNA product abundance (RNA/gDNA barcode ratio) relative to median wild-type variant (ratio to wild type); higher = more accumulation of the downstream cleavage product; conditions: experiment (reporter, strain, medium): exp 8a: truncated aprE reporter, strain BJT201 with 2% xylose (RNase J1 expressed); cleavage site: glnRA (positions -5 to +31 mutated)
cleaved RNA product abundance class ranges: lower level (below 0.4), middle level (0.4 to below 0.8), upper level (0.8 or more)

Query: Band for `CGACATGTCCCGCTTCTTTCATTAATCCATTAGCAACTGTTTTGCTATATACATTTACATTTTAAGAGGAGGAAT` ?
Response: middle level

Query: Band for `CGACATGTCCCGCTTCTTTCATTAATCCGTTAGCAACTGTTTTGCCATATACATTTACCTTTTAAGAGGAGGAAT` ?
Response: lower level

Query: Band for `CGACATGTCCCGCTTCTTTCATTAACCCGTTAGTAACTGTTTTGCTATATACATTTACCTTTTAAGAGGAGGAAT` ?
Response: lower level

Query: Band for `CGACATGTCCCGCTTCTTTCATTAATCCGATAGCAACTGTTTTACTATATACATTTACCTTTTAAGAGGAGGAAT` ?
Response: middle level

Query: Band for `CGACATGTCCCGCTTCTTTCATTAGTCCGTTAGCAACTGTTTTCCTATATACATTTACCTTTTAAGAGGAGGAAT` ?
Response: lower level

Query: Band for `CGACATGTCCCGCTTCTTTCATTAATCCGTTACCAACTGTTTTGCTATATAAATTTACCTTTTAAGAGGAGGAAT` ?
Response: lower level

Query: Band for `CGACATGTCCCGCTTCTTTCATTATGCCGTTAGCAACTGTTTTGCTATATACATTTACCTTTTAAGAGGAGGAAT` ?
Response: upper level

Query: Band for `CGACATGTCCCGCTTCTTTCATTAATGCGTTAGCAACTGTTTTGCTATATACATTCACCTTTTAAGAGGAGGAAT` ?
Response: lower level

Query: Band for `CGACATGTCCCGCTTCTTTCATTAATCCGTTAGCAACTGTCTTGATATATACATTTACCTTTTAAGAGGAGGAAT` ?
Response: middle level

Query: Band for `CGACATGTCCCGCTTCTTTCATTAATCCGTTAGCAATTGTTTTGCTATATACATTAACCTTTTAAGAGGAGGAAT` ?
Response: upper level

Query: Band for `CGACATGTCCCGCTTCTTTCATTAATCAGTTAGCAACTGTTTTGATATATACATTTACCTTTTAAGAGGAGGAAT` ?
Response: middle level

Query: Band for `CGACATGTCCCGCTTCTTTCATTAATCCGTTAACAACTGTTTTGCTATATACAATTACCTTTTAAGAGGAGGAAT` ?
Response: lower level

Query: Band for `CGACATGTCCCGCTTCTTTCATTAATCCGTTAGCAACTGTTTTGCTATATACAATTTACCTTTTAAGAGGAGGAA` ?
Response: upper level

Query: Band for `CGACATGTCCCGCTTCTTTCATTAATCCTTTAGCAACTGTTTTGCTTTATACATTTACCTTTTAAGAGGAGGAAT` ?
Response: lower level

Query: Band for `CGACATGTCCCGCTTCTTTCATTAATCCGTTAGTAACTGTTTTACTATATACATTTACCTTTTAAGAGGAGGAAT` ?
Response: upper level

Query: Band for `CGACATGTCCCGCTTCTTTCATTAATCCGTTAGCAACTGTTTTTCTATATACATTTAACTTTTAAGAGGAGGAAT` ?
Response: middle level

Query: Band for `CGACATGTCCCGCTTCTTTCATTAATCTGTTAGCAACTGTTTTGCTATAAACATTTACCTTTTAAGAGGAGGAAT` ?
Response: upper level

Query: Band for `CGACATGTCCCGCTTCTTTCATTAATCCGTTAGCAAATGTTTTGCTATATACATTCACCTTTTAAGAGGAGGAAT` ?
Response: upper level

Query: Band for `CGACATGTCCCGCTTCTTTCATTAATCCGTTAGCAAGTTTTTTGCTATATACATTTACCTTTTAAGAGGAGGAAT` ?
Response: upper level

Query: Band for `CGACATGTCCCGCTTCTTTCATTAATCCGTTAGCAACTGTTTTACTATATACATTTATCTTTTAAGAGGAGGAAT` ?
Response: middle level

Query: Band for `CGACATGTCCCGCTTCTTTCATTACACCGTTAGCAACTGTTTTGCTATATACATTTACCTTTTAAGAGGAGGAAT` ?
Response: upper level

Query: Band for `CGACATGTCCCGCTTCTTTCATTATTCCGTTAGCAACTGTTTTGCTATATACAATTACCTTTTAAGAGGAGGAAT` ?
Response: upper level

Query: Band for `CGACATGTCCCGCTTCTTTCATTAATCGGTTAGCAACTGTTTTGCAATATACATTTACCTTTTAAGAGGAGGAAT` ?
Response: lower level

Query: Band for `CGACATGTCCCGCTTCTTTCATTACTCCGTTAGCAACTGTTTTGCTTTATACATATACCTTTTAAGAGGAGGAAT` ?
Response: middle level

Query: Band for `CGACATGTCCCGCTTCTTTCATTAATCCGATAGCAACTGTTTTGCTATATACATTTAACTTTTAAGAGGAGGAAT` ?
Response: middle level

Query: Band for `CGACATGTCCCGCTTCTTTCATTAATCCTTTAGCCACTGTTTTGCTATATACATTTACCTTTTAAGAGGAGGAAT` ?
Response: lower level

Where do the numbers come from? From the supplement of paper PMC11780869.
